test system: HeLa (EGFR+) cells; conditions: saponin as single compound
RECORDED ENDPOINT: general toxicity in absence of EGFdianthin

# COMPOUND, READING
records = [
    ("CC(=O)OC1C(C)OC(OC2C(C)OC(OC(=O)[C@]34CCC(C)(C)CC3C3=CCC5[C@@]6(C)CC[C@H](OC7OC(C(=O)O)C(O)C(OC8OCC(O)C(O)C8O)C7OC7OC(CO)C(O)C(O)C7O)[C@@](C)(/C=N/NC(=O)CCCCCN7C(=O)C=CC7=O)C6CC[C@@]5(C)[C@]3(C)C[C@H]4O)C(OC3OC(C)C(OC4OCC(O)C(OC5OC(CO)C(O)C(O)C5O)C4O)C(O)C3O)C2O)C(O)C1OC1OCC(O)C(O)C1O (stereo partly shown) [SO1861-Ald-EMCH]", "> 25.000 nM"),
]

---

test: Critical micellar concentration (ANS fluorescence); type: physicochemical; settings: comparison in words
RECORDED ENDPOINT: CMC compared with native (underivatised) saponin

# COMPOUND, READING
rows = [
    ("CC(=O)OC1C(C)OC(OC2C(C)OC(OC(=O)C34CCC(C)(C)CC3C3=CCC5C6(C)CCC(OC7OC(C(=O)NC(C)(CO)CO)C(O)C(OC8OCC(O)C(O)C8O)C7OC7OC(CO)C(O)C(O)C7O)C(C)(C=NNC(=O)CCCCCN7C(=O)C=CC7=O)C6CCC5(C)C3(C)CC4O)C(OC3OC(C)C(OC4OCC(O)C(OC5OC(CO)C(O)C(O)C5O)C4O)C(O)C3O)C2O)C(O)C1OC1OCC(O)C(O)C1O (stereo not drawn)", "lower CMC values"),
    ("CC(=O)OC1C(C)OC(OC2C(C)OC(OC(=O)[C@]34CCC(C)(C)CC3C3=CCC5[C@@]6(C)CC[C@H](OC7OC(C(=O)NCCN8C(=O)C=CC8=O)C(O)C(OC8OCC(O)C(O)C8O)C7OC7OC(CO)C(O)C(O)C7O)[C@@](C)(CO)C6CC[C@@]5(C)[C@]3(C)C[C@H]4O)C(OC3OC(C)C(OC4OCC(O)C(OC5OC(CO)C(O)C(O)C5O)C4O)C(O)C3O)C2O)C(O)C1OC1OCC(O)C(O)C1O (stereo partly drawn)", "lower CMC values"),
]

---

assay: Critical micellar concentration (ANS fluorescence); type: physicochemical; conditions: SO saponins, determined in PBS, Table A7
RECORDED ENDPOINT: CMC (µM)

# MOLECULE, RECORDED ENDPOINT, MEASUREMENT QUALIFIER, READING
data = [
    ("CC(=O)OC1C(C)OC(OC2C(C)OC(OC(=O)[C@]34CCC(C)(C)CC3C3=CCC5[C@@]6(C)CC[C@H](OC7OC(C(=O)O)C(O)C(OC8OCC(O)C(O)C8O)C7OC7OC(CO)C(O)C(O)C7O)[C@@](C)(/C=N/NC(=O)CCCCCN7C(=O)C[C@H](SCCO)C7=O)C6CC[C@@]5(C)[C@]3(C)C[C@H]4O)C(OC3OC(C)C(OC4OCC(O)C(OC5OC(CO)C(O)C(O)C5O)C4O)C(O)C3O)C2O)C(O)C1OC1OCC(O)C(O)C1O (some centres unmarked)", "CMC", "=", 50),
    ("CC(=O)OC1C(C)OC(OC2C(C)OC(OC(=O)C34CCC(C)(C)CC3C3=CCC5C6(C)CCC(OC7OC(C(=O)NC(C)(CO)CO)C(O)C(OC8OCC(O)C(O)C8O)C7OC7OC(CO)C(O)C(O)C7O)C(C)(C=NNC(=O)CCCCCN7C(=O)C=CC7=O)C6CCC5(C)C3(C)CC4O)C(OC3OC(C)C(OC4OCC(O)C(OC5OC(CO)C(O)C(O)C5O)C4O)C(O)C3O)C2O)C(O)C1OC1OCC(O)C(O)C1O (centres unmarked)", "CMC", ">", 30),
]
